These entries and their values trace back to paper PMC10146204.

// values below are reported IC50
# Target Desc: AChE (Homo sapiens, UniProt P22303)
# Construct: purchased Sigma-Aldrich Chemical Co
# Sequence (P22303 32-614): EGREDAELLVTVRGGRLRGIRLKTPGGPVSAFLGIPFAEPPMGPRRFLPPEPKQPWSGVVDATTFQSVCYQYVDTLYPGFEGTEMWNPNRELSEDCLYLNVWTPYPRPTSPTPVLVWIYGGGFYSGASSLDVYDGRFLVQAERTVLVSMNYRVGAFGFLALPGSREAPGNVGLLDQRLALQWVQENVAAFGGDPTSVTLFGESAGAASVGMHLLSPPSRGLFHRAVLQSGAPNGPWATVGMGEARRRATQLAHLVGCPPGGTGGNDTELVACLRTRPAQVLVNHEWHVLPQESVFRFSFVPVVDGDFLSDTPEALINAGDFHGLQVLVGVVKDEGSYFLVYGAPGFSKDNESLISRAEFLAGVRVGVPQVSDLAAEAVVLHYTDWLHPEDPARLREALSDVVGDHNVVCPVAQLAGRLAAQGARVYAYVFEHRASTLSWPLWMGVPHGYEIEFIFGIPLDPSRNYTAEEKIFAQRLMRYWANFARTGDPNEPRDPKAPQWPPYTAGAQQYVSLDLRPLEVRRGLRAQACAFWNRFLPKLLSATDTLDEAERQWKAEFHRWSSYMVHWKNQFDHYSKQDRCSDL
# Method: biochemical
# Format: biochemical
# Condition Summary: N.A.: no activity was observed at the highest concentration tested (150 µM); 5–7 tested concentrations; read-out: AChE inhibitory activity IC50
Enter your answer as a number in µM; do not include the unit.

>>> df
                              smiles_string  reported
0  O=Cc1ccc(OCc2cn(C[C@@H]3CCCN4CCCC[C@H]34)nn2)cc1      68.1
1  COc1cccc(/C=C/C(=O)OC[C@@H]2CCCN3CCCC[C@H]23)c1OC       111

Now look at this entry.
Request: Quick check: IC50 of Nc1nc(SCc2cn(C[C@@H]3CCCN4CCCC[C@H]34)nn2)n[nH]1 ?
Response: 101
